Data export: IC50 values recorded with MMP-9 (Homo sapiens).
Sequence (P14780 107-707 limits assumed, species assumed): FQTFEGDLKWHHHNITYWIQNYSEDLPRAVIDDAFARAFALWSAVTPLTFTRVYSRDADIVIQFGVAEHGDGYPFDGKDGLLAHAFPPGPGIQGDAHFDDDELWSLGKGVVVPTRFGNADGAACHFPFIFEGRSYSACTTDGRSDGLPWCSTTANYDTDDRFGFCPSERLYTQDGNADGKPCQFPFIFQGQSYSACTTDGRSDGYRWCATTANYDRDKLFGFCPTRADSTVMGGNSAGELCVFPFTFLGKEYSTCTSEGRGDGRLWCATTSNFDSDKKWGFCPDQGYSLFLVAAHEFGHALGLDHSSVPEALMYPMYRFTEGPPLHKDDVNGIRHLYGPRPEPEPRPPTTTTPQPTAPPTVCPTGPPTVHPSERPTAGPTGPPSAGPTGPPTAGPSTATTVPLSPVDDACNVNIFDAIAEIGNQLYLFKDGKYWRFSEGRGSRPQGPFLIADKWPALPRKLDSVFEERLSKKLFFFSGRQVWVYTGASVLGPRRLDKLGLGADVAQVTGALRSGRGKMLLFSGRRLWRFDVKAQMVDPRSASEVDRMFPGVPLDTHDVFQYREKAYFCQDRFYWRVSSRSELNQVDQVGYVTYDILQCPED
measured.metric: IC50 (µM)

molecule: O=C(NCCC[C@@H](NS(=O)(=O)c1ccc(OCc2cc(Br)cc(Br)c2)cc1)C(=O)NO)c1cccc(C(=O)NCCC[C@@H](NS(=O)(=O)c2ccc(OCc3cc(Br)cc(Br)c3)cc2)C(=O)NO)c1
measured.value: 8.8

molecule: NC(=O)NCCC[C@@H](NS(=O)(=O)c1ccc(OCc2cc(Br)cc(Br)c2)cc1)C(=O)NO [JG26, reference compound]
measured.value: 1.63

====

Test system: MDA-MB-231 cells
procedure.summary: Matrigel invasion assay
Type: cell-based
measurement.setup: MDA-MB-231 cells pretreated with inhibitors for 24 h; control 69.07 ± 5.26%

compound: O=C(NCCC[C@@H](NS(=O)(=O)c1ccc(OCc2cc(Br)cc(Br)c2)cc1)C(=O)NO)NCCC[C@@H](NS(=O)(=O)c1ccc(OCc2cc(Br)cc(Br)c2)cc1)C(=O)NO
Invaded cells, %: 52.9

compound: O=C(CCCNC(=O)c1cccc(C(=O)NCCCC(=O)NCCC[C@@H](NS(=O)(=O)c2ccc(OCc3cc(Br)cc(Br)c3)cc2)C(=O)NO)c1)NCCC[C@@H](NS(=O)(=O)c1ccc(OCc2cc(Br)cc(Br)c2)cc1)C(=O)NO
Invaded cells, %: 57.25

compound: O=C(NCCC[C@@H](NS(=O)(=O)c1ccc(OCc2cc(Br)cc(Br)c2)cc1)C(=O)NO)c1cccc(C(=O)NCCC[C@@H](NS(=O)(=O)c2ccc(OCc3cc(Br)cc(Br)c3)cc2)C(=O)NO)c1
Invaded cells, %: 50.8

compound: NC(=O)NCCC[C@@H](NS(=O)(=O)c1ccc(OCc2cc(Br)cc(Br)c2)cc1)C(=O)NO [JG26, reference compound]
Invaded cells, %: 59.87

====

tgt: ADAM17 (Homo sapiens)
Construct: kind gift of Franka Scharfenberg, University of Kiel
Sequence (P78536 215-824, species assumed): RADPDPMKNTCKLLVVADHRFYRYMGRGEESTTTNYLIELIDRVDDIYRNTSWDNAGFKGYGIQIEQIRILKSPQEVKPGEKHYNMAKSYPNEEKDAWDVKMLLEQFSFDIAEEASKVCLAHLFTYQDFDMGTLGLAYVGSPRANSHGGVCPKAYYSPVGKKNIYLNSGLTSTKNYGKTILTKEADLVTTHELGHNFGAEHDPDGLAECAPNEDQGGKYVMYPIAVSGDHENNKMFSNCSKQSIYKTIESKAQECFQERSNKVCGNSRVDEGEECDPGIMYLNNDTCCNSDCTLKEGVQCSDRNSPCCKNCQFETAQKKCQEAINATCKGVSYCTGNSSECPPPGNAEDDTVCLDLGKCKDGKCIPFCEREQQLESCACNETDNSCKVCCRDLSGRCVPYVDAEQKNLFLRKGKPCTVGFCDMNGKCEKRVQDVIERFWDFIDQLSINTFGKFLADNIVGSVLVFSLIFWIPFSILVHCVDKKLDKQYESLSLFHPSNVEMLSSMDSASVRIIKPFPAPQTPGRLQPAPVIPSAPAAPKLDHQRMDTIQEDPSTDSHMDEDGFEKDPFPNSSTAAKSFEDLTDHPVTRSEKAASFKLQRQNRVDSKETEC
procedure.summary: ADAM17 fluorometric inhibition assay
measurement.setup: recombinant enzyme, mean of three independent experiments in duplicate, read-out: In vitro inhibitory activity IC50 on ADAM17
Procedure: The newly synthesized bivalent derivatives 1–3 were then tested in vitro on human recombinant ADAM8 in comparison with JG26 by a fluorometric assay. The inhibitory activity against a panel of MMPs and ADAM10/17 was determined as well to assess their selectivity profile. (RFU). Percent of inhibition was calculated from control reactions without the inhibitor. […]
pIC50: −log10 of the molar value.
measured.metric: pIC50

molecule: O=C(NCCC[C@@H](NS(=O)(=O)c1ccc(OCc2cc(Br)cc(Br)c2)cc1)C(=O)NO)NCCC[C@@H](NS(=O)(=O)c1ccc(OCc2cc(Br)cc(Br)c2)cc1)C(=O)NO
measured.metric: pIC50
measured.value: 7.26
//
molecule: O=C(CCCNC(=O)c1cccc(C(=O)NCCCC(=O)NCCC[C@@H](NS(=O)(=O)c2ccc(OCc3cc(Br)cc(Br)c3)cc2)C(=O)NO)c1)NCCC[C@@H](NS(=O)(=O)c1ccc(OCc2cc(Br)cc(Br)c2)cc1)C(=O)NO
measured.metric: pIC50
measured.value: 7.28
//
molecule: NC(=O)NCCC[C@@H](NS(=O)(=O)c1ccc(OCc2cc(Br)cc(Br)c2)cc1)C(=O)NO [JG26, reference compound]
measured.metric: pIC50
measured.value: 8.72
//
molecule: O=C(NCCC[C@@H](NS(=O)(=O)c1ccc(OCc2cc(Br)cc(Br)c2)cc1)C(=O)NO)c1cccc(C(=O)NCCC[C@@H](NS(=O)(=O)c2ccc(OCc3cc(Br)cc(Br)c3)cc2)C(=O)NO)c1
measured.metric: pIC50
measured.value: 7.62
